# tgt: Sigma intracellular receptor 2 (Homo sapiens, UniProt Q5BJF2)
# Sequence (Q5BJF2 whole entry): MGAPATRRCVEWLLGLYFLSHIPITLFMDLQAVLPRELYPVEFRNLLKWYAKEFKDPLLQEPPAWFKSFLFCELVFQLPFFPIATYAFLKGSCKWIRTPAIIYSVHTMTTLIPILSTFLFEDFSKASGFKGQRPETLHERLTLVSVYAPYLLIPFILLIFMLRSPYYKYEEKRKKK
# assay-comment: GPCRScan assay: inhibition of Sigma 2
# Parameters: radioligand conc. used [nm] 5.0, parental cells HEKT
# condition-set: read-out: Ki
metric: pKi
API: returns pKi as number; meaning -log10 of concentration in mol/L.

Which pKi value is on record for O=C(NCCCC1CCCCC1)c1ccc(CNC(=O)c2cnn(-c3ccccc3)c2C(F)(F)F)cc1 ? 5.54

* * *

# tgt: UniProt:P35367
# Sequence (P35367 whole entry): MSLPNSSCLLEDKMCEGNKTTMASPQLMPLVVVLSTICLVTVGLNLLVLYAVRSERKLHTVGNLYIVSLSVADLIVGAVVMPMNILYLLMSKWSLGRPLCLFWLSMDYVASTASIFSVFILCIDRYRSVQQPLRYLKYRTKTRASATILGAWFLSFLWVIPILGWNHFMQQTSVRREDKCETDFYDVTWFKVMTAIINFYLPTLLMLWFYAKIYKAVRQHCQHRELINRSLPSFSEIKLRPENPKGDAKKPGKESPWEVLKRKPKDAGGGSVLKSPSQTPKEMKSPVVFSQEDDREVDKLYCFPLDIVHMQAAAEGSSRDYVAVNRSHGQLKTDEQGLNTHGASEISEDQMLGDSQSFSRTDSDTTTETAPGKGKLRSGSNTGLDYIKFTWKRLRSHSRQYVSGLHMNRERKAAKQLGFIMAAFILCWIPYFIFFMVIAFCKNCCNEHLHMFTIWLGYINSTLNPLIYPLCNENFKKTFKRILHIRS
metric: Ki

// lookup Ki for O=C(NCCCC1CCCCC1)c1ccc(CNC(=O)c2cnn(-c3ccccc3)c2C(F)(F)F)cc1 > 10 µM

Values were extracted from ChEMBL document CHEMBL4507315.
